# System: U2OS
# Assay Remarks: Incucyte cell viability with U2OS; note: filed as whole numbers so only -1 and 0 and 1 occur
# Assay type: toxicity, cell-based
# Condition Context: human, 6 h, 10 µM, compound concentration 10 uM, replicate number 2, timepoint 6 hours
Measure: Growth Rate
Just the number.

The examples below pair each entry with its known result.
{"Compound": "CN1CCC(=C2c3ccccc3CC(=O)c3sccc32)CC1.O=C(O)/C=C/C(=O)O [KETOTIFEN FUMARATE]", "Target": "U2OS", "Growth Rate": 0}
{"Compound": "COc1cc(N2CCC(N3CCN(C)CC3)CC2)ccc1Nc1ncnc(Nc2ccccc2S(=O)(=O)C(C)C)n1 [ASP-3026]", "Target": "U2OS", "Growth Rate": 1}
{"Compound": "O=c1ccn([C@@H]2O[C@H](COP(=O)([O-])OP(=O)([O-])O)[C@@H](O)[C@H]2O)c(=O)[nH]1.[Na+].[Na+]", "Target": "U2OS", "Growth Rate": 1}
{"Compound": "CCCc1c(OCCCOc2ccc(OCC(=O)O)cc2)ccc(C(C)=O)c1O", "Target": "U2OS", "Growth Rate": 1}

Task: Sample CN(C)C(=O)c1cc2cnc(Nc3ccc(N4CCNCC4)cn3)nc2n1C1CCCC1 [RIBOCICLIB] — what was its Growth Rate?
Result: 1

Task: Sample Cc1cc(C)c(S(=O)(=O)N(Cc2ccc(-c3cccc(S(C)(=O)=O)c3)cc2)Cc2ccc(C(F)(F)F)o2)c(C)c1 — what was its Growth Rate?
Result: 1

Task: Sample O=C(Nc1nc2cccc(-c3ccc(CN4CCS(=O)(=O)CC4)cc3)n2n1)C1CC1 [FILGOTINIB] — what was its Growth Rate?
Result: 0

Task: Sample C#C[C@]1(O)CC[C@H]2[C@@H]3CCc4cc(O)ccc4[C@H]3CC[C@@]21C [ETHINYL ESTRADIOL] — what was its Growth Rate?
Result: 1

---

# Tested on: U2OS
# Assay Remarks: Multiplex assay against U2OS
# Format: toxicity, cell-based
# Condition Context: human, 12 h, 10 µM, compound concentration 10 uM, replicate 2
Measure: Population Tubulin-Different-Phenotype (%)
The reply should be a number in %, with the unit left off.

The examples below pair each entry with its known result.
{"Compound Structure": "C=CCn1c(=O)c2cnc(Nc3ccc(N4CCN(C)CC4)cc3)nc2n1-c1cccc(C(C)(C)O)n1", "Unit Name": "%", "Value Observed": 75}
{"Compound Structure": "CCc1cccc(CC)c1NC(=O)c1nn(C)c2c1CCc1cnc(Nc3ccc(C(=O)NC4CCN(C)CC4)cc3OC(F)(F)F)nc1-2", "Unit Name": "%", "Value Observed": 86}
{"Compound Structure": "Cn1nc(C(=O)NCc2ccc(C(=O)O)cc2)cc1-c1ccc2[nH]ccc2c1", "Unit Name": "%", "Value Observed": 30}

Next:
Task: Sample NC(=O)c1cccc(-c2cc(Nc3ccc(OC(F)(F)F)cc3)ncn2)c1 — what was its Population Tubulin-Different-Phenotype (%)?
Result: 13

---

# Tested on: Fibroblast
# Assay Remarks: Incucyte cell viability with human fibroblast; note: filed as whole numbers so only -1 and 0 and 1 occur
# Assay type: toxicity, cell-based
# Condition Context: 0 h, 10 µM, compound concentration 10 uM, replicate number 1, timepoint 0 hours
Measure: Growth Rate
Just the number.

The examples below pair each entry with its known result.
{"Molecule": "N#Cc1c[nH]c2c(C(=O)N3CCN(CCc4ccc(F)cc4)CC3)cccc12", "Growth Rate": 0}
{"Molecule": "C=C1/C(=C\\C=C2/CCC[C@]3(C)[C@@H]([C@H](C)/C=C/[C@H](C)C(C)C)CC[C@@H]23)C[C@@H](O)C[C@@H]1O", "Growth Rate": 0}
{"Molecule": "CCN1CCN(c2ccc(Nc3cc(N(C)C(=O)Nc4c(Cl)c(OC)cc(OC)c4Cl)ncn3)cc2)CC1", "Growth Rate": 0}
{"Molecule": "FC(F)(F)c1cccc(-c2noc(-c3cc(-c4ccccc4)c(C(F)(F)F)s3)n2)c1", "Growth Rate": 0}
{"Molecule": "CO[C@@H](C)c1c(Nc2ccc([C@@H](N(C)C(=O)C3CCS(=O)(=O)CC3)C(F)(F)F)cc2)cnc2cc(Cl)nn12", "Growth Rate": 0}

Task: Sample CC(C)OC(=O)C1=CN(C(=O)c2ccc(F)c(F)c2)CC(C)(C)c2c1[nH]c1ccccc21 [TUROFEXORATE ISOPROPYL] — what was its Growth Rate?
Result: 0

Task: Sample Cc1nnc2c3ccccc3c(N[C@@H](C)[C@H](c3ccccc3)N(C)C)nn12 — what was its Growth Rate?
Result: 0
